# Tested on: tobacco budworm (Heliothis virescens [Fabricius])
# assayProtocol: surface-treated diet test against the tobacco budworm
# Type: in vivo
# experimentalContext: tobacco budworm second instar larvae; surface-treated diet; 0.25 millimoles of candidate insecticide on the surface of the diet; five-day exposure; compared to total number of insects infested
Kindly state Percent Mortality for each of the entries shown.
Numbers only; they are read as %.

Name the reported Percent Mortality value associated with the compound O=C(Nc1cc(F)cc(F)c1)OC(c1ccc(OC(F)(F)F)cc1)C1CCN(Cc2ccc(Cl)cc2)CC1 (stereo not drawn) 0

Next compound: CCn1nnc(-c2ccc(CN3CCC(C(OC(=O)Nc4ccc(F)cc4)c4ccc(OC(F)(F)F)cc4)CC3)cc2)n1 (stereo not drawn) 100

Same again, this time with O=C(Nc1ccc(F)cc1)OC(c1ccc(C(F)(F)F)cc1)C1CCN(Cc2ccc(-c3csnn3)cc2)CC1 (stereo not drawn) 17

Now give it for CCON=Cc1ccc(CN2CCC(C(OC(=O)Nc3ccc(F)c(F)c3)c3ccc(OC(F)(F)F)cc3)CC2)cc1 (stereo not drawn) too. 100

What would you report for COc1ccc(C(=O)Nc2ccc(CN3CCC(C(OC(=O)Nc4cc(F)cc(F)c4)c4ccc(C(F)(F)F)cc4)CC3)cc2)cc1 (stereo not drawn) ? 0

Try this compound too: COc1ccc(CN2CCC(=C(c3ccc(OC(F)(F)F)cc3)c3ccc(OC(F)(F)F)cc3)CC2)cc1 100

And what about the compound Cc1ccc(S(=O)(=O)NC(=O)OC(c2ccc(C(F)(F)F)cc2)C2CCN(Cc3ccc(Oc4ccccn4)cc3)CC2)cc1 (stereo not drawn) ? 0

And the next one, CCON=Cc1ccc(CN2CCC(C(OC(=O)Nc3ccc(OC(F)(F)F)cc3)c3ccc(C(F)(F)F)cc3)CC2)cc1 (stereo not drawn) ? 100

One more compound: O=C(Nc1ccc(Cl)cc1)OC(c1ccc(C(F)(F)F)cc1)C1CCN(Cc2ccc(O)cc2)CC1 (stereo not drawn) 0

Also need CCn1nnc(-c2ccc(CN3CCC(C(OC(=O)Nc4ccc(F)c(F)c4)c4ccc(Oc5ccccc5)cc4)CC3)cc2)n1 (stereo not drawn) , thanks. 100

And for CCn1nnc(-c2ccc(CN3CCC(C(OC(=O)Nc4ccc(Cl)c(Cl)c4)c4ccc(-c5ccccc5)cc4)CC3)cc2)n1 (stereo not drawn) ? 0

What do you get for O=C(Nc1ccc(F)cc1)OC(c1ccc(C(F)(F)F)cc1)C1CCN(Cc2ccc(-n3cccn3)cc2)CC1 (stereo not drawn) ? 33

Now try COC(=O)c1cccc(NC(=O)OC(c2ccc(Cl)cc2)C2CCN(Cc3ccc(Oc4ccccn4)cc3)CC2)c1 (stereo not drawn) . 100

Record: CCn1nnc(-c2ccc(CN3CCC(C(OC(=O)Nc4ccc(C(F)(F)F)cc4)c4ccc(OC)cc4)CC3)cc2)n1 (stereo not drawn) 100

Input O=C(Nc1ccc(F)cc1)OC(c1cccc(C(F)(F)F)c1)C1CCN(Cc2ccc(Oc3ccccn3)cc2)CC1 (stereo not drawn) 100

Again, but for CCCOc1ccc(CN2CCC(C(OC(=O)Nc3ccc(Cl)cc3)c3ccc(C(F)(F)F)cc3)CC2)cc1 (stereo not drawn) 100

Param item: CC(C)OC(=O)Nc1ccc(CN2CCC(C(OC(=O)Nc3cccc(F)c3)c3cc(Cl)cc(Cl)c3)CC2)cc1 (stereo not drawn) 100

Could you do the same for O=C(Nc1ccc(Cl)cc1)OC(c1cccc(C(F)(F)F)c1)C1CCN(Cc2ccc(Oc3ccccn3)cc2)CC1 (stereo not drawn) , please? 100

Now consider CCON=Cc1ccc(CN2CCC(C(OC(=O)Nc3ccc(Cl)cc3)c3ccc(Cl)cc3Cl)CC2)cc1 (stereo not drawn) and answer again. 100

Can you handle CCON=Cc1ccc(CN2CCC(C(OC(=O)Nc3cccc(C(F)(F)F)c3)c3ccc(C(F)(F)F)cc3)CC2)cc1 (stereo not drawn) next? 100

Would you mind doing O=C(Nc1ccc(C(F)(F)F)cc1)OC(c1ccc(OC(F)(F)F)cc1)C1CCN(Cc2ccc(Oc3ccccn3)cc2)CC1 (stereo not drawn) as well? 100

Then this compound: CCn1nnc(-c2ccc(CN3CCC(C(OC(=O)Nc4ccc(Br)cc4)c4ccc(OC(F)(F)F)cc4)CC3)cc2)n1 (stereo not drawn) 100

Also need Cn1nnc(-c2ccc(COC(c3ccc(OC(F)(F)F)cc3)C3CCN(Cc4ccc(-c5nnn(C)n5)cc4)CC3)cc2)n1 (stereo not drawn) , thanks. 33

Also, CCn1nnc(-c2ccc(CN3CCC(C(OC(=O)Nc4ccc(Cl)c(Cl)c4)c4cc(F)cc(F)c4)CC3)cc2)n1 (stereo not drawn) please. 100

// repeat for [O-][N+]1(Cc2ccc(OCc3nccs3)cc2)CCC(=C(c2ccc(C(F)(F)F)cc2)c2ccc(C(F)(F)F)cc2)CC1 (stereo not drawn) and report 100

Cool, now CC(C)OC(=O)Nc1ccc(CN2CCC(C(OC(=O)Nc3cc(F)cc(F)c3)c3ccc(Cl)cc3)CC2)cc1 (stereo not drawn) 100

# iterate: Cn1nnc(-c2ccc(CN3CCC(C(NCc4ccc(Cl)cc4)c4ccc(OC(F)(F)F)cc4)CC3)cc2)n1 (stereo not drawn) 100

* * *

# System: tobacco budworm (Heliothis virescens [Fabricius])
# assayProtocol: surface-treated diet test against the tobacco budworm
# Type: in vivo
# experimentalContext: tobacco budworm second instar larvae; surface-treated diet; 0.25 millimoles of candidate insecticide on the surface of the diet; five-day exposure; compared to total number of insects infested
I'd be grateful if you could share measured Percent Mortality for these entries.
// units = %; emit number, no label

Give its Percent Mortality value. Item: O=C(Nc1cccc(F)c1)OC(c1ccc(OC(F)(F)F)cc1)C1CCN(Cc2ccc(Oc3ccccn3)cc2)CC1 (centres unmarked) 100

Proceed to Cn1nnc(-c2ccc(C[N+]3([O-])CCC(C(OC(=O)Nc4ccc(C(F)(F)F)cc4)c4ccc(OC(F)(F)F)cc4)CC3)cc2)n1 (centres unmarked) 100

Then what about the compound O=C(Nc1cc(F)cc(F)c1)OC(c1ccc(Cl)c(Cl)c1)C1CCN(Cc2ccc(Oc3ccccn3)cc2)CC1 (centres unmarked) ? 100

Another: O=C(Nc1ccc(F)cc1)OC(c1ccc(C(F)(F)F)cc1)C1CCN(Cc2ccc(-n3cncn3)cc2)CC1 (centres unmarked) 0

Same thing, different compound: Cn1nnc(-c2ccc(CN3CCC(C(NC(=O)Nc4ccc([N+](=O)[O-])cc4)c4ccc(OC(F)(F)F)cc4)CC3)cc2)n1 (centres unmarked) 100

What do you get for CCON=Cc1ccc(CN2CCC(C(OC(=O)Nc3ccc(Cl)c(C(F)(F)F)c3)c3ccc(C(F)(F)F)cc3)CC2)cc1 (centres unmarked) ? 100

Check O=C(Nc1ccc(C(F)(F)F)cc1)OC(c1ccc(Cl)cc1)C1CCN(Cc2ccc(Oc3ccccn3)cc2)CC1 (centres unmarked) too. 100

Now try Cn1nnc(-c2ccc(CN3CCC(C(OC(=O)Nc4ccc(Cl)cc4)c4ccc(OC(F)(F)F)cc4)CC3)cc2)n1 (centres unmarked) . 100

Lookup O=C(Nc1cc(F)cc(F)c1)OC(c1ccc(C(F)(F)F)cc1)C1CCN(Cc2ccc(Oc3cccc(Cl)n3)cc2)CC1 (centres unmarked) 100

And for O=C(Nc1cc(F)cc(F)c1)OC(c1ccc(OC(F)(F)F)cc1)C1CCN(Cc2ccc(F)cc2)CC1 (centres unmarked) ? 0

Queued: CCCOc1ccc(CN2CCC(C(OC(=O)Nc3cc(F)cc(F)c3)c3ccc(Cl)cc3)CC2)cc1 (centres unmarked) 100

Also CC(C)COC(=O)Nc1ccc(CN2CCC(=C(c3ccc(C(F)(F)F)cc3)c3ccc(C(F)(F)F)cc3)CC2)cc1 , if possible. 0

Then what about the compound FC(F)(F)c1ccc(C(Oc2ccc(Cl)nn2)C2CCN(Cc3ccc(Oc4ccccn4)cc3)CC2)cc1 (centres unmarked) ? 67

How about CCCOc1ccc(CN2CCC(C(OC(=O)Nc3cc(F)cc(F)c3)c3ccc(F)cc3)CC2)cc1 (centres unmarked) ? 100

* * *

# Test system: tobacco budworm (Heliothis virescens [Fabricius])
# assayProtocol: surface-treated diet test against the tobacco budworm
# Format: in vivo
# experimentalContext: tobacco budworm second instar larvae; surface-treated diet; 0.25 millimoles of candidate insecticide on the surface of the diet; five-day exposure; compared to total number of insects infested
parameterMeasured: Percent Mortality
Record the result as number plus unit.

Entry O=C(Nc1ccc(F)c(F)c1)OC(c1ccc(C(F)(F)F)cc1)C1CCN(Cc2ccc(Oc3ccccn3)cc2)CC1 (stereo not drawn) [Compound 237] : reported Percent Mortality = ? 100%

Try Cn1nnc(-c2ccc(CN3CCC(C(NCc4ccc(F)cc4)c4ccc(OC(F)(F)F)cc4)CC3)cc2)n1 (stereo not drawn) [Compound 315] next. 100%

Same question, Cc1ccc(NC(=O)NC(c2ccc(OC(F)(F)F)cc2)C2CCN(Cc3ccc(-c4nnn(C)n4)cc3)CC2)cc1 (stereo not drawn) [Compound 342] this time 100%

Try the compound O=C(Nc1ccc(Cl)cc1)OC(c1ccc(Cl)c(Cl)c1)C1CCN(Cc2ccc(Oc3ccccn3)cc2)CC1 (stereo not drawn) [Compound 645] 100%

Please give the result for CC(C)OC(=O)c1ccc(C[N+]2([O-])CCC(=C(c3ccc(C(F)(F)F)cc3)c3ccc(C(F)(F)F)cc3)CC2)cc1 (stereo not drawn) [Compound 100] too. 100%

Repeat for the following compound: O=C(Nc1cc(F)cc(F)c1)OC(c1ccc(C(F)(F)F)cc1)C1CCN(Cc2ccc(Oc3ncccc3Cl)cc2)CC1 (stereo not drawn) [Compound 683] 100%

// query: CCn1nnc(-c2ccc(CN3CCC(C(OC(=O)Nc4cc(F)cc(F)c4)c4cc(F)cc(F)c4)CC3)cc2)n1 (stereo not drawn) [Compound 593] 100%

Follow-up entry: O=C(Oc1ccccc1)OC(c1ccc(C(F)(F)F)cc1)C1CCN(Cc2ccc(Oc3ccccn3)cc2)CC1 (stereo not drawn) [Compound 661] 0%

Next record, please: CC(C)COC(=O)Nc1ccc(C[N+]2([O-])CCC(=C(c3ccc(C(F)(F)F)cc3)c3ccc(C(F)(F)F)cc3)CC2)cc1 (stereo not drawn) [Compound 104] 100%

Likewise for Cn1nnc(-c2ccc(CN3CCC(C(NCc4ccc(I)cc4)c4ccc(OC(F)(F)F)cc4)CC3)cc2)n1 (stereo not drawn) [Compound 316] ? 50%

Query CCOC(=O)c1ccc(C[N+]2([O-])CCC(=C(c3ccc(C(F)(F)F)cc3)c3ccc(C(F)(F)F)cc3)CC2)cc1 (stereo not drawn) [Compound 99] next 100%

Field entry: CCn1nnc(-c2ccc(CN3CCC(C(OC(=O)Nc4cc(F)cc(F)c4)c4ccc(OC)c(OC)c4)CC3)cc2)n1 (stereo not drawn) [Compound 609] 33%

Ok, now CCn1nnc(-c2ccc(CN3CCC(C(OC(=O)Nc4ccc(Cl)c(Cl)c4)c4ccc(OC)cc4)CC3)cc2)n1 (stereo not drawn) [Compound 602] 100%

What do we get for O=C(Nc1ccc(Cl)cc1)OC(c1ccc(C(F)(F)F)cc1)C1CCN(Cc2ccc(Oc3ccccn3)cc2)CC1 (stereo not drawn) [Compound 666] ? 100%

Please answer likewise for O=C(Nc1cc(F)cc(F)c1)OC(c1ccc(C(F)(F)F)cc1)C1CCN(Cc2ccc(S(=O)(=O)NC3CCCC3)cc2)CC1 (stereo not drawn) [Compound 542] 0%

Same again, this time with CCn1nnc(-c2ccc(CN3CCC(C(OC(=O)Nc4cc(F)cc(F)c4)c4ccc(OC)cc4)CC3)cc2)n1 (stereo not drawn) [Compound 604] 100%

Here is the next compound: CCn1nnc(-c2ccc(CN3CCC(C(OC(=O)Nc4ccc(Cl)c(Cl)c4)c4ccccc4Cl)CC3)cc2)n1 (stereo not drawn) [Compound 568] 100%

Can you handle CCON=Cc1ccc(CN2CCC(C(OC(=O)Nc3cc(F)cc(F)c3)c3ccc(Cl)cc3)CC2)cc1 (stereo not drawn) [Compound 525] next? 100%

Next record, please: O=C(Nc1ccccn1)OC(c1ccc(C(F)(F)F)cc1)C1CCN(Cc2ccc(Oc3ccccn3)cc2)CC1 (stereo not drawn) [Compound 436] 50%

Similarly, O=C(Nc1ccc(C(F)(F)F)cc1)OC(c1ccc(Cl)c(Cl)c1)C1CCN(Cc2ccc(Oc3ccccn3)cc2)CC1 (stereo not drawn) [Compound 651] ? 100%

Input Cn1nnc(-c2ccc(CN3CCC(C(NC(=O)Nc4ccc(I)cc4)c4ccc(OC(F)(F)F)cc4)CC3)cc2)n1 (stereo not drawn) [Compound 341] 100%
